Origin of measurements: patent US10441562B2

The following compounds are listed with their measured IC50 values.
- measurement.target: dipeptidyl peptidase-4 (Homo sapiens, UniProt P27487)
- Sequence (P27487 whole entry, species assumed): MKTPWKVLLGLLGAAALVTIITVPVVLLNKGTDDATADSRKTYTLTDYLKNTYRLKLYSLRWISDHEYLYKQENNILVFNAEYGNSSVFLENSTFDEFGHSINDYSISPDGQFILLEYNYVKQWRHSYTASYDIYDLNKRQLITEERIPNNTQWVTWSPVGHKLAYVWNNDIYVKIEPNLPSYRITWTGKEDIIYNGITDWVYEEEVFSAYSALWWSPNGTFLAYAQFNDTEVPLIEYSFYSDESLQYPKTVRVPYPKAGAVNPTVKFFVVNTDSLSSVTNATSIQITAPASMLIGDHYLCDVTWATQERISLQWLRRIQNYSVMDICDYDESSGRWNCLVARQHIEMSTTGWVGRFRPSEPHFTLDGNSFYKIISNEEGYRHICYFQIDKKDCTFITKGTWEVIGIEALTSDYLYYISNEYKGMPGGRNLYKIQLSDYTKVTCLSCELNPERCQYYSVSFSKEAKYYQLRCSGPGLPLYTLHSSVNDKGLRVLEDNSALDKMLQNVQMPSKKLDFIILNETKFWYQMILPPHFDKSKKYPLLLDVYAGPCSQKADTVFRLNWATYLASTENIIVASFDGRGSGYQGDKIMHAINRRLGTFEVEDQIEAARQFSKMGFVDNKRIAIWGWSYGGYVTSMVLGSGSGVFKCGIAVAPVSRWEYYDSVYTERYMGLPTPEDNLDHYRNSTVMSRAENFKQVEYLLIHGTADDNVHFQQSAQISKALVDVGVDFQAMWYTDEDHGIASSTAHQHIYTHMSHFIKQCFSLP
measurement.name: IC50 (µM)

1. CCc1ccc([C@H]2C=C(CC/C=C(\C)CCC=C(C)C)C(=O)O2)cc1 9.2
2. CC(C)=CCC/C(C)=C/CCC1=C[C@H](c2cc(F)c(F)c(F)c2)OC1=O 12.1
3. CCc1ccc([C@@H]2C=C(CC/C=C(\C)CCC=C(C)C)C(=O)O2)cc1 9.5
4. CC(C)=CCC/C(C)=C/CCC1=C[C@@H](c2cc(F)c(F)c(F)c2)OC1=O 11.6
5. CC(C)=CCC/C(C)=C/CCC1=C[C@@H](c2ccc(C(C)C)cc2)OC1=O 8.8
6. COc1ccc(OC)c([C@@H]2C=C(CC/C=C(\C)CCC=C(C)C)C(=O)O2)c1 8.6
7. CC(C)=CCC/C(C)=C/CCC1=C[C@H](c2ccc3ccccc3c2)OC1=O 12.5
8. CC(C)=CCC/C(C)=C/CCC1=C[C@H](c2ccccc2)OC1=O 12.2
9. CC(C)=CCC/C(C)=C/CCC1=C[C@H](c2ccc(C(C)C)cc2)OC1=O 9.4
10. COc1ccc(OC)c([C@H]2C=C(CC/C=C(\C)CCC=C(C)C)C(=O)O2)c1 8.8
11. C/C(C=O)=C\CC/C(C)=C/CC/C(=C/Cc1cc(O)ccc1O)C(=O)O 7.8
12. CC(C)=CCC/C(C)=C/CCC1=C[C@H](c2ccc([N+](=O)[O-])cc2)OC1=O 10.2
13. CC(C)=CCC/C(C)=C/CCC1=C[C@@H](c2ccc([N+](=O)[O-])cc2)OC1=O 10.6

###

The compounds listed here are annotated with their pIC50.
- measurement.target: α-glucosidase (Saccharomyces cerevisiae)
- Construct: purchased Sigma Corporation G5003
- Sequence (P53341 whole entry): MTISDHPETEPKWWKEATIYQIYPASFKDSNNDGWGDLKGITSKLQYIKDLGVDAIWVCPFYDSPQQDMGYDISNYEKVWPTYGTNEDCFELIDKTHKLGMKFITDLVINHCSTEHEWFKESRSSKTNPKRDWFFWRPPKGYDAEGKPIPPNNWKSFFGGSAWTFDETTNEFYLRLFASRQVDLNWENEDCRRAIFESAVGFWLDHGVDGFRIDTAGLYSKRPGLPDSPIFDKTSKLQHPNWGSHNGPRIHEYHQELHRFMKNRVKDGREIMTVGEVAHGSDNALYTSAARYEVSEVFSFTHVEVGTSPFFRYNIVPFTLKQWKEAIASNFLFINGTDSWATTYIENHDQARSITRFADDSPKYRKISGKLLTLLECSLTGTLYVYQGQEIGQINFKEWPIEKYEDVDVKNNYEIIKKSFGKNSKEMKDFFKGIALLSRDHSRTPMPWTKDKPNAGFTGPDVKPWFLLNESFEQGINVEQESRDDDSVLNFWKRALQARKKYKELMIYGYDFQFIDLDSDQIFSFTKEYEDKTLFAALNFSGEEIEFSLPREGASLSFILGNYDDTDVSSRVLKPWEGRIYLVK
- experimental.details: α-glucosidase inhibitory activity test in vitro
- Type: biochemical
- setup.conditions: read-out: α-glucosidase inhibitory activity (IC50)
pIC50: −log10 of the molar value.
measurement.name: pIC50

1) COCOc1ccccc1[C@H]1C=C(CC/C=C(\C)CCC=C(C)C)C(=O)O1 5.06
2) COc1ccc(OC)c([C@H]2C=C(CC/C=C(\C)CCC=C(C)C)C(=O)O2)c1 4.94
3) CC(C)=CCC/C(C)=C/CCC1=C[C@H](c2c(F)cccc2F)OC1=O 5.43
4) CC(C)=CCC/C(C)=C/CCC1=C[C@H](c2ccc(C(C)(C)C)cc2)OC1=O 6.80
5) CC(C)=CCC/C(C)=C/CCC1=C[C@@H](c2ccc(C)cc2)OC1=O 5.99
6) CCc1ccc([C@@H]2C=C(CC/C=C(\C)CCC=C(C)C)C(=O)O2)cc1 6.04
7) CC(C)=CCC/C(C)=C/CCC1=C[C@H](c2ccc3ccccc3c2)OC1=O 5.13

###

- measurement.target: aldose reductase (Homo sapiens, UniProt P15121)
pIC50: −log10 of the molar value.
Listing: pIC50 of selected compounds

compound	pIC50
CC(C)=CCC/C(C)=C/CCC1=C[C@@H](c2ccccc2[N+](=O)[O-])OC1=O [S20]	5.02
CC(C)=CCC/C(C)=C/CC/C(=C/C(=O)c1cc(O)ccc1O)C(=O)O [S32]	4.46
CC(C)=CCC/C(C)=C/CCC1=C[C@H](c2ccccc2O)OC1=O [S4]	4.63
CC(C)=CCC/C(C)=C/CC/C(=C/Cc1cc(O)ccc1O)C(=O)O [S34]	5.06
CC(C)=CCC/C(C)=C/CCC1=C[C@@H](c2cc(O)ccc2O)OC1=O [S28]	5.80
CCc1ccc([C@@H]2C=C(CC/C=C(\C)CCC=C(C)C)C(=O)O2)cc1 [S22]	4.25
CC(C)=CCC/C(C)=C/CCC1=C[C@H](c2ccc(C)cc2)OC1=O [S6]	4.20
COc1ccc(OC)c([C@@H]2C=C(CC/C=C(\C)CCC=C(C)C)C(=O)O2)c1 [S27]	4.60

###

pIC50: −log10 of the molar value.
Quick note: these are pIC50 numbers for system: protein tyrosine phosphatase 1B (PTP-1B) (Homo sapiens, UniProt P18031)
Sequence (P18031 whole entry, species assumed): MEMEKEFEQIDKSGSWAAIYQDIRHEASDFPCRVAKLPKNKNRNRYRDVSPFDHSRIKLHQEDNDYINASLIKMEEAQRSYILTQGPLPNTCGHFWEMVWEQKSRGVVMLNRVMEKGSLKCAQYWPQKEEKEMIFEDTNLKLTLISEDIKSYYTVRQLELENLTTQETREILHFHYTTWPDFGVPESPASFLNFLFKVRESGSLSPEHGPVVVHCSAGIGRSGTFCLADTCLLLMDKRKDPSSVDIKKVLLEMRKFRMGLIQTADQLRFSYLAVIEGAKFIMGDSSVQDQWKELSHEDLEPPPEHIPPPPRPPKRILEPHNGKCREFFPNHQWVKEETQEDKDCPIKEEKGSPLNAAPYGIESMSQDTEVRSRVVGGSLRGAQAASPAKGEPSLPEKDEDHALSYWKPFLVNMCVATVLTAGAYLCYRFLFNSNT
measurement.name: pIC50

compound	data.value
CC(C)=CCC/C(C)=C/CCC1=C[C@H](c2cc(O)ccc2O)OC1=O [S13]	5.05
COC1(c2cc(O)ccc2O)C=C(CC/C=C(\C)CCC=C(C)C)C(=O)O1 (stereo not drawn) [S31]	4.81
CC(C)=CCC/C(C)=C/CCC(CC(=O)c1cc(O)ccc1O)C(=O)O (stereo not drawn) [S36]	4.94
